This listing pairs molecules with measured MIC.
Tested on: Mycobacterium tuberculosis
Assay: Antitubercular activity against multidrug-resistant Mycobacterium tuberculosis assessed as growth inhibition at 0.3125 to 5 ug/mL after 7 days by resazurin reduction test
Format: functional
Settings: 168 h
Give just the number in µg/mL; leave the unit off.

Respond only with MIC recorded for "Cn1cc(CCC(=O)NCc2c[nH]c3ccc(Cl)cc23)c2cc(Cl)ccc21"
6.25

Respond only with MIC recorded for "Cn1cc(CCCNC(=O)CCc2cn(C)c3ccc(Cl)cc23)c2cc(Cl)ccc21"
25

Respond only with MIC recorded for "Cn1cc(CCCNC(=O)CCc2c[nH]c3ccc(Cl)cc23)c2cc(OC(F)(F)F)ccc21"
12.5

----------
System: Mycobacterium tuberculosis
Experiment: Antitubercular activity against multidrug-resistant Mycobacterium tuberculosis assessed as growth inhibition at 0.3125 to 5 ug/mL after 7 days by resazurin reduction test
Format: functional
Conditions: 168 h
This listing pairs compounds with measured MIC.
Give just the number in µg/mL; leave the unit off.

Respond only with MIC recorded for "CO[C@H]1/C=C/O[C@@]2(C)Oc3c(C)c(O)c4c(O)c(c(/C=N/N5CCN(C)CC5)c(O)c4c3C2=O)NC(=O)/C(C)=C\C=C\[C@H](C)[C@H](O)[C@@H](C)[C@@H](O)[C@@H](C)[C@H](OC(C)=O)[C@@H]1C"
25

Respond only with MIC recorded for "Cn1cc(CCC(=O)NCCCc2c[nH]c3ccc(OC(F)(F)F)cc23)c2cc(Cl)ccc21"
6.25

Respond only with MIC recorded for "Cc1c(CCCNC(=O)CCc2cn(C)c3ccc(Cl)cc23)c2cc(OC(F)(F)F)ccc2n1C"
1.25

----------
Test system: Mycobacterium tuberculosis
Assay: Antitubercular activity against multidrug-resistant Mycobacterium tuberculosis assessed as growth inhibition at 0.3125 to 5 ug/mL after 7 days by resazurin reduction test
Type: functional
Conditions: 168 h
This listing pairs molecules with measured MIC.

Observe how each entry below is paired with its result.
>  <compound>
Cc1[nH]c2ccc(OC(F)(F)F)cc2c1CNC(=O)CCc1cn(C)c2ccc(Cl)cc12

>  <MIC>
> 50 µg/mL

$$$$
>  <compound>
Cn1cc(CCC(=O)NCc2cn(C)c3ccc(Cl)cc23)c2cc(Cl)ccc21

>  <MIC>
> 50 µg/mL

$$$$
>  <compound>
Cc1[nH]c2ccc(OC(F)(F)F)cc2c1CNC(=O)CCc1c[nH]c2ccc(Cl)cc12

>  <MIC>
6.25 µg/mL

$$$$
>  <compound>
Cc1[nH]c2ccc(OC(F)(F)F)cc2c1CCCNC(=O)CCc1c[nH]c2ccc(Cl)cc12

>  <MIC>
> 50 µg/mL

$$$$
>  <compound>
O=C(CCc1c[nH]c2ccc(Cl)cc12)NCc1c[nH]c2ccc(OC(F)(F)F)cc12

>  <MIC>
> 50 µg/mL

$$$$

Respond only with MIC recorded for "NNC(=O)c1ccncc1"
12.5 µg/mL

Respond only with MIC recorded for "O=C(CCc1c[nH]c2ccc(Cl)cc12)NCc1c[nH]c2ccc(Cl)cc12"
6.25 µg/mL

Respond only with MIC recorded for "Cc1c(CCCNC(=O)CCc2c[nH]c3ccc(Cl)cc23)c2cc(OC(F)(F)F)ccc2n1C"
> 50 µg/mL

Respond only with MIC recorded for "Cn1cc(CNC(=O)CCc2c[nH]c3ccc(Cl)cc23)c2cc(Cl)ccc21"
> 50 µg/mL

Respond only with MIC recorded for "Cc1c(CNC(=O)CCc2c[nH]c3ccc(Cl)cc23)c2cc(OC(F)(F)F)ccc2n1C"
> 50 µg/mL

Respond only with MIC recorded for "Cn1cc(CCC(=O)NCCCc2c[nH]c3ccc(Cl)cc23)c2cc(Cl)ccc21"
2.5 µg/mL

Respond only with MIC recorded for "Cc1c(CNC(=O)CCc2cn(C)c3ccc(Cl)cc23)c2cc(OC(F)(F)F)ccc2n1C"
> 50 µg/mL

Respond only with MIC recorded for "Cn1cc(CCC(=O)NCc2c[nH]c3ccc(OC(F)(F)F)cc23)c2cc(Cl)ccc21"
6.25 µg/mL
